protocol-text: Cytotoxicity against human HepG2 cells assessed as cell viability at 100 uM measured after 48 hrs by MTT assay
Type: cell-based
details: read-out: Activity
readout-label: viability at 48 h, 100 µM (%)
Give bare numbers, in %.

Value lookup for viability at 48 h, 100 µM; key = Fc1ccc(CNc2cc(N3CCNCC3)nc3ccnn23)c(F)c1 90

###

target: UniProt:Q6V1X1
Sequence (Q6V1X1 whole entry): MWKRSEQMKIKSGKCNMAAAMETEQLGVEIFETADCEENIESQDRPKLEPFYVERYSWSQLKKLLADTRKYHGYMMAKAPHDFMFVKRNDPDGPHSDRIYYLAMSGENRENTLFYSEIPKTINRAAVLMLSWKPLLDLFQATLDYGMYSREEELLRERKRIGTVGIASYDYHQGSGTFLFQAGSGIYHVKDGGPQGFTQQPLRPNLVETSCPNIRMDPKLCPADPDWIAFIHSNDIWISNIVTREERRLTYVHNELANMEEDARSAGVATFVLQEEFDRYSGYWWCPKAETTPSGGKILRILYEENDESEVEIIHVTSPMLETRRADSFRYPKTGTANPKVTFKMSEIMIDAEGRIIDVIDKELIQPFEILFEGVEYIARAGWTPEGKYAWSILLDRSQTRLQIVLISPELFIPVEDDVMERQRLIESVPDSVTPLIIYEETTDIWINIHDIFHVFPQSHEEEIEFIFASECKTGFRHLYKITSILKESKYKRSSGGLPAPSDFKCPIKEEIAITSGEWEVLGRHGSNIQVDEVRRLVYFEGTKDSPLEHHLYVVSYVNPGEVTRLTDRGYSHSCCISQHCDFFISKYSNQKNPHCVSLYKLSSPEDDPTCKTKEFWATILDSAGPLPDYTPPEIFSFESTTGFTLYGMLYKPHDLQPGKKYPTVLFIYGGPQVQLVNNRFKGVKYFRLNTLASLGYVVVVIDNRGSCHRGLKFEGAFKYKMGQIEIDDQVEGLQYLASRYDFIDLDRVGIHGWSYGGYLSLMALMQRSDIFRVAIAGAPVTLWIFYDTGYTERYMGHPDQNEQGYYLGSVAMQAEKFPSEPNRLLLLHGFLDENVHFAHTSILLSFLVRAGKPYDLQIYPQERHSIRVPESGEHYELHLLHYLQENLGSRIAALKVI
pIC50: −log10 of the molar value.
Assignment: determine reported pIC50 for the given compounds.

N[C@@H]1CCCN(c2cc(Nc3cc(Cl)ccn3)n3nccc3n2)C1    < 4.30
N[C@@H]1CCCN(c2cc(NCCc3ccc(Cl)cc3Cl)n3nccc3n2)C1    < 4.00
Cc1ccnc(Nc2cc(N3CCC[C@@H](N)C3)nc3ccnn23)c1    < 4.00
N[C@@H]1CCCN(c2cc(Nc3ccccc3Cl)n3nccc3n2)C1    < 4.00
Cc1ccc(Nc2cc(N3CCC[C@@H](N)C3)nc3ccnn23)c(N)c1    < 4.00
O=[N+]([O-])c1ccccc1Nc1cc(N2CCNCC2)nc2ccnn12    < 4.00

Look up pIC50 for the entries below, preserving their order.
1. Cc1ccc(Nc2cc(N3CCC[C@@H](N)C3)nc3ccnn23)c(C)c1
2. N[C@@H]1CCCN(c2cc(NCc3ccc(Cl)cc3Cl)n3nccc3n2)C1
3. Fc1ccc(Nc2cc(N3CCNCC3)nc3ccnn23)c(F)c1

1. < 4.00
2. < 4.00
3. < 4.00
